- EXPERIMENTAL SYSTEM: Arginase-2, mitochondrial (Homo sapiens)
- METHOD SUMMARY: in vitro enzyme assay to detect the production of urea directly proportional to the activity of Arginase II
- Type: functional
- Parameters: scale not given: in the data most compounds retested in dose-response had high values
- CONDITION DESCRIPTION: 30 µM
METRIC NAME: Percent Effect (%)
Give bare numbers, in %.

Lab note: need Percent Effect with Arginase-2, mitochondrial (Homo sapiens) for entry CC1CCN(S(=O)(=O)c2cccn(CC(=O)NC3CCCC3)c2=O)CC1 , please look it up.
2.7

Look up Percent Effect for the entries below, preserving their order.
1. O=C(Cc1ccccn1)N1CCC2(CC1)CC(Oc1ccccn1)CO2 (centres undefined)
2. Cc1cc(NC(=O)N2CCN(c3nc(C)c(C)s3)CC2)no1
3. Cc1nn(CCO)c(C)c1CNC1CCC(C)(C)c2ccccc21 (centres undefined)

1. 2.7
2. 3.78
3. 2.7

Look up Percent Effect for the entries below, preserving their order.
1. O=C(Cn1nc2c(cc1=O)CCCC2)N[C@@H](C(=O)O)c1ccccc1
2. COCCC(=O)N1CCC2(COCc3c(C)nc(NCC4CC4)nc32)C1 (centres undefined)
3. Cc1nc(C2CCCN2C(=O)CNS(C)(=O)=O)no1 (centres undefined)
4. OC(CN(Cc1ccccc1)Cc1ccncc1)c1cccs1 (centres undefined)

8.11
4.87
-12.4
5.95

---

- EXPERIMENTAL SYSTEM: Arginase-2, mitochondrial (Homo sapiens) (UniProt P78540)
- Sequence (P78540 whole entry): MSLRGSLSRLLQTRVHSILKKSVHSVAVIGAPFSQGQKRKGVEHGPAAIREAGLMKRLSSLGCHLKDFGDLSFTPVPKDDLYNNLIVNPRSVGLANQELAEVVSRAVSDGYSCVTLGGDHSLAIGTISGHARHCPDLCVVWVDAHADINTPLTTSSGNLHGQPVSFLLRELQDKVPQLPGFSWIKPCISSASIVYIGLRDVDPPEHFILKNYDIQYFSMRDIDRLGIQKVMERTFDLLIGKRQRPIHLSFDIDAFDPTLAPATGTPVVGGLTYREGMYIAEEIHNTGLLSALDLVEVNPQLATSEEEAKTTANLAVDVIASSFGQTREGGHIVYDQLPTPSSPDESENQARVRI
- METHOD SUMMARY: in vitro enzyme assay to detect the production of urea directly proportional to the activity of Arginase II
- Type: functional
- Parameters: scale not given: in the data most compounds retested in dose-response had high values
- CONDITION DESCRIPTION: 33.3 µM
I'd appreciate it if you could supply Percent Effect values for the items below.
Answers are plain numbers, in %.

Lab note: need Percent Effect with Arginase-2, mitochondrial (Homo sapiens) (UniProt P78540) for entry O=C(NCc1ccccn1)[C@@H]1COC[C@H]2CN(C3CCOCC3)C[C@H]21 , please look it up.
4.78

Lab note: need Percent Effect with Arginase-2, mitochondrial (Homo sapiens) (UniProt P78540) for entry CC(=O)N1C[C@H](NC(=O)c2cscn2)[C@@H]2OCCC[C@@H]21 , please look it up.
7.33

Lab note: need Percent Effect with Arginase-2, mitochondrial (Homo sapiens) (UniProt P78540) for entry CCOCCN1CCN(Cc2nc(C3CC3)no2)CC1CC (configuration not stated) , please look it up.
0.909

Lab note: need Percent Effect with Arginase-2, mitochondrial (Homo sapiens) (UniProt P78540) for entry Cc1cnc2n(c1=O)CC(C(=O)Nc1ccccc1Cl)CS2 (configuration not stated) , please look it up.
-1.36

Lab note: need Percent Effect with Arginase-2, mitochondrial (Homo sapiens) (UniProt P78540) for entry Cc1cc(C[C@@H]2COC[C@H]2NCc2ccc(Br)s2)on1 , please look it up.
-7.19

Lab note: need Percent Effect with Arginase-2, mitochondrial (Homo sapiens) (UniProt P78540) for entry CCc1nnc(CN(C)c2nc(C3CCCC3)nc3c2cnn3C)o1 , please look it up.
2.65

Lab note: need Percent Effect with Arginase-2, mitochondrial (Homo sapiens) (UniProt P78540) for entry Cn1cc(C2CCCN2C(=O)CCCOc2ccc(F)cc2F)cn1 (configuration not stated) , please look it up.
1.9

Lab note: need Percent Effect with Arginase-2, mitochondrial (Homo sapiens) (UniProt P78540) for entry NS(=O)(=O)c1ccc(NC(=O)CSc2ccc3c(c2)CCC3)cc1 , please look it up.
-21.2

Look up Percent Effect for the entries below, preserving their order.
1. CNS(=O)(=O)Cc1ccc(CNC(=O)c2ccc(C)[nH]c2=O)cc1
2. COc1ccc(CN2C[C@@H](N(C)Cc3ccco3)[C@H]3OCCC[C@H]32)cc1
3. COc1cccc(CN(C)C(=O)Nc2ccc3c(c2)OCCO3)c1
4. O=C(CCOc1ccccc1)N1CCC(Nc2cccnn2)CC1

1. -1.07
2. 0.699
3. 2.37
4. -0.719
